Cited source: patent US20120172293A1

# target_or_test_system: human Y2 receptor (human) (UniProt P49146)
# Sequence (P49146 whole entry): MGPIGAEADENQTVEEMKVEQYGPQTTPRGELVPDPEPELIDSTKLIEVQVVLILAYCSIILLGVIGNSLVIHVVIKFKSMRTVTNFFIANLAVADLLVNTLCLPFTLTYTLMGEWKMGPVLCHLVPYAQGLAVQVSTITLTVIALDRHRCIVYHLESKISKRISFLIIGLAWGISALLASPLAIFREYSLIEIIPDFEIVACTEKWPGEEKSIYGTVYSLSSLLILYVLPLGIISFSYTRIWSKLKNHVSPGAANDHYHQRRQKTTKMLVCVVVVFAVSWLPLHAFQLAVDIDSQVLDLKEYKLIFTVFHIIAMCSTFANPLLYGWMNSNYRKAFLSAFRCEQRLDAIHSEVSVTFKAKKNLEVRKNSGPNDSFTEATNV
# measurement_protocol: RBA: displacement of [125I]-PYY from hY2R/CHO membranes
Non-standard residues stand in square brackets, D forms with d. *: point of attachment. Imidazole4carbonyl = O=C(c1cnc[nH]1)*; 4Pal = N[C@@H](Cc1ccncc1)C(=O)O; Cha = N[C@@H](CC1CCCCC1)C(=O)O; Iva = CC[C@](C)(N)C(=O)O; Aib = CC(C)(N)C(=O)O
readout_type: IC50 Ratio (IC50 compound/IC50 PYY(3-36))

binder	observed_result
Imidazole4carbonyl-S[dP][Iva][4Pal][Cha][Aib]N[Cha][Aib]TRQR[Cha]-NH2 (SMILES CC[C@](C)(NC(=O)[C@H]1CCCN1C(=O)[C@H](CO)NC(=O)c1cnc[nH]1)C(=O)N[C@@H](Cc1ccncc1)C(=O)N[C@@H](CC1CCCCC1)C(=O)NC(C)(C)C(=O)N[C@@H](CC(N)=O)C(=O)N[C@@H](CC1CCCCC1)C(=O)NC(C)(C)C(=O)N[C@H](C(=O)N[C@@H](CCCNC(=N)N)C(=O)N[C@@H](CCC(N)=O)C(=O)N[C@@H](CCCNC(=N)N)C(=O)N[C@@H](CC1CCCCC1)C(N)=O)[C@@H](C)O) [4-Imidazolecarbonyl-[D-Pro24, Iva25, Pya(4)26, Cha27,30,36, Aib28,31]-PYY(23-36)]	2.3

For record Ac-S[Iva]R[4Pal][Cha][Aib]NK[Aib]TRQR[Cha]-NH2 (SMILES CC[C@](C)(NC(=O)[C@H](CO)NC(C)=O)C(=O)N[C@@H](CCCNC(=N)N)C(=O)N[C@@H](Cc1ccncc1)C(=O)N[C@@H](CC1CCCCC1)C(=O)NC(C)(C)C(=O)N[C@@H](CC(N)=O)C(=O)N[C@@H](CCCCN)C(=O)NC(C)(C)C(=O)N[C@H](C(=O)N[C@@H](CCCNC(=N)N)C(=O)N[C@@H](CCC(N)=O)C(=O)N[C@@H](CCCNC(=N)N)C(=O)N[C@@H](CC1CCCCC1)C(N)=O)[C@@H](C)O) [Ac-[Iva24, Pya(4)26, Cha27,36, Aib28,31, Lys30]-PYY(23-36)] the listed IC50 Ratio (IC50 compound/IC50 PYY(3-36)) is 0.58
